Numbers sourced from the Human Domainome abundance scans (Beltran et al. 2025).

B1: SH3 and PX domain-containing protein 2B, residues 155 to 209; numbered along this chain, A1X283 (parent)
chain: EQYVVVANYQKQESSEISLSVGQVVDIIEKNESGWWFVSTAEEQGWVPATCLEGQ

variants of: B1; experiment: abundance fitness (aPCA) (normalised: wild type 0, dead -1); higher = more abundant; growth selection in yeast, the domain comes from the species named; settings: Homo sapiens
Task for the reader: assign each of the following variants its reported abundance fitness.
Answer with a number only.

# input variant: EQYVVSANYQKQESSEISLSVGQVVDIIEKNESGWWFVSTAEEQGWVPATCLEGQ [V6S] ; wanted: its abundance fitness
-0.087

# iterate: EQYVVVAIYQKQESSEISLSVGQVVDIIEKNESGWWFVSTAEEQGWVPATCLEGQ [N8I]
-0.501

Next entry: EQYVVVANYQKQESSEISLSPGQVVDIIEKNESGWWFVSTAEEQGWVPATCLEGQ [V21P]
-0.315

Then what about the variant EQYVVVANYQKQESSEISLSVGQVVDIIEKNESGWWFVSTAAEQGWVPATCLEGQ [E42A] ?
-0.057

Same lookup for EQYVVVANYQKQESSEISLSVGQVVDIIEKNESGWWFVSTAEEQGWVPATCLKGQ [E53K] , please.
-0.004

Same question, EQYVVVANYQKQESSEISLSVGQVVDIIEKNESHWWFVSTAEEQGWVPATCLEGQ [G34H] this time
-0.327

Now the variant EQYVVVANYQKQESSEISLSVGQVVDIIEKNESGWWFVSTAEEQGWVPACCLEGQ [T50C]
-0.144

Try this variant next: EQYVVVANYQKHESSEISLSVGQVVDIIEKNESGWWFVSTAEEQGWVPATCLEGQ [Q12H]
-0.114

Can you check EQYVVVANYQKQESSEISLSVGQVVDIIEKNESGWWFVSDAEEQGWVPATCLEGQ [T40D] next?
-0.234

# iterate: EQYVVVANYQKQESSEISLSVGQVVDIIEKNESGWWFCSTAEEQGWVPATCLEGQ [V38C]
-0.298

Now give it for EQYVVVANYQKQESSEISLSVGQVVDIIEKNVSGWWFVSTAEEQGWVPATCLEGQ [E32V] too.
0.038

Lookup EQYVVVANYQKQHSSEISLSVGQVVDIIEKNESGWWFVSTAEEQGWVPATCLEGQ [E13H]
-0.154

Repeat for the following variant: EQYIVVANYQKQESSEISLSVGQVVDIIEKNESGWWFVSTAEEQGWVPATCLEGQ [V4I]
0.082

What about EQYVVVANYQKQESSEISLSVGQVVDIIEKNESGWWFVSTAEEQGWVPRTCLEGQ [A49R] ?
-0.146

Request: EQYVVVANYQKQESSEISLSVGQVVDIAEKNESGWWFVSTAEEQGWVPATCLEGQ [I28A]
-0.319

Also, EQYVVVANYQKQESTEISLSVGQVVDIIEKNESGWWFVSTAEEQGWVPATCLEGQ [S15T] please.
-0.103

Now give it for EQYVVVANYQKQESSEISLSVGQVVDIIEKNESNWWFVSTAEEQGWVPATCLEGQ [G34N] too.
-0.538

EQYVVVANYQKQESSEESLSVGQVVDIIEKNESGWWFVSTAEEQGWVPATCLEGQ [I17E] , same question.
-0.99

Entry to check: EQYVVVANYQKQESSEISLSVGQVVDIIEKNESGWWFVSTAEVQGWVPATCLEGQ [E43V]
-0.093

Field entry: EQYVVVANYQKQESSEISLSVGQVVDIIEKNELGWWFVSTAEEQGWVPATCLEGQ [S33L]
-0.242

Also need EQYVVVANYQKQESSEISLSVGQVVDIIEKNESGWIFVSTAEEQGWVPATCLEGQ [W36I] , thanks.
-0.139

And for EQYVNVANYQKQESSEISLSVGQVVDIIEKNESGWWFVSTAEEQGWVPATCLEGQ [V5N] ?
-0.946

Entry to check: EQYVVVANYQKQESSAISLSVGQVVDIIEKNESGWWFVSTAEEQGWVPATCLEGQ [E16A]
-0.312

Please give the result for EQYVVVANYQKQESSEISLPVGQVVDIIEKNESGWWFVSTAEEQGWVPATCLEGQ [S20P] too.
-0.536

Try EQYVVVANYQKQESSEISLSVGQVLDIIEKNESGWWFVSTAEEQGWVPATCLEGQ [V25L] next.
-0.378

How about this variant: EQYVVVANYQKQESSEISLSVGQVVDIIEKNESGWWFGSTAEEQGWVPATCLEGQ [V38G]
-0.363

One more variant: EQYVVVANYQKQESSEISLSVGQVVDIIEKNESGWWFVSTAEEQHWVPATCLEGQ [G45H]
-0.815

Now the same for EQYVVVANYQKQESSEISLSVGQVVDIIEKNESGWWFVSTAEEQGWSPATCLEGQ [V47S]
-0.567

Would you mind doing EQYVVVANYQKQESSEISLSVGQVRDIIEKNESGWWFVSTAEEQGWVPATCLEGQ [V25R] as well?
-0.945

Record: EQWVVVANYQKQESSEISLSVGQVVDIIEKNESGWWFVSTAEEQGWVPATCLEGQ [Y3W]
-0.324

Same for EQYVVVANYQKQESSEISLSCGQVVDIIEKNESGWWFVSTAEEQGWVPATCLEGQ [V21C]
-0.025

For EQYVVVANYQKQESSEISLSVGQVVDIIEKNESGWWFVSTLEEQGWVPATCLEGQ [A41L] then?
-0.041

Next: EQYVVVANYQKQESSKISLSVGQVVDIIEKNESGWWFVSTAEEQGWVPATCLEGQ [E16K]
-0.16

Continue with EQYRVVANYQKQESSEISLSVGQVVDIIEKNESGWWFVSTAEEQGWVPATCLEGQ [V4R]
0.077

Repeat for the following variant: EQYVVVANYQKQESSEISLSVGNVVDIIEKNESGWWFVSTAEEQGWVPATCLEGQ [Q23N]
-0.037

Same for EQYVVVANYQKQESSEISLSVGQVVDIIEKNESGWWFVSTAEEQGWVPATCLWGQ [E53W]
-0.477

And then EQYVVVANYQKQESSYISLSVGQVVDIIEKNESGWWFVSTAEEQGWVPATCLEGQ [E16Y] , what is it?
-0.853

Try the variant EQYVVVANYQKQESSSISLSVGQVVDIIEKNESGWWFVSTAEEQGWVPATCLEGQ [E16S]
-0.177

And the next one, EQYVVVANYQKQESSEISLSVGQVVDIIEKNESGWWFPSTAEEQGWVPATCLEGQ [V38P] ?
-1.14

Now give it for EQYVVVANYQKQESSGISLSVGQVVDIIEKNESGWWFVSTAEEQGWVPATCLEGQ [E16G] too.
0.057

Follow-up entry: EQYVVVANYQKQESSEISLSVCQVVDIIEKNESGWWFVSTAEEQGWVPATCLEGQ [G22C]
-0.638

Same for EQYVVVANYQKQESSEISLSVGQVVDIIEKEESGWWFVSTAEEQGWVPATCLEGQ [N31E]
-0.122

And for EQYVVVANYQKQESSEISLSVGQVVDIIEKNESGWWFVSTAEEQDWVPATCLEGQ [G45D] ?
-0.964

Follow-up item: EQYVVVANYQKQESSEISNSVGQVVDIIEKNESGWWFVSTAEEQGWVPATCLEGQ [L19N]
-0.966

Another variant to look at: EQYVVVANYQKQESSEISLSVGQVVDIIEKNESGWLFVSTAEEQGWVPATCLEGQ [W36L]
-0.2

Another variant: EQYVVVANYQKQESSEISLSVGQVVDIIEKNESGWWFVSTAEEQTWVPATCLEGQ [G45T]
-0.683
